Molecular target: human GLP-1 receptor (human, UniProt P43220 24-463)
Assay: cell-based or functional assay
Where no end group is shown, it is not given here. [ ]: non-standard residue; d: D form. Bip(2'-Et-4'-OMe) = CCc1cc(OC)ccc1-c1ccc(C[C@H](N)C(=O)O)cc1; αMePhe(2,6-F2) = C[C@](N)(Cc1c(F)cccc1F)C(=O)O; αMePhe(2-F) = C[C@](N)(Cc1ccccc1F)C(=O)O; αMeBip(OMe) = alpha-methylated Bip(OMe); hhPhe = N[C@@H](CCCc1ccccc1)C(=O)O; αMeD = C[C@](N)(CC(=O)O)C(=O)O; αMeP = C[C@@]1(C(=O)O)CCCN1; αMeAPPA = not defined here; αMeS = C[C@](N)(CO)C(=O)O; Aib = CC(C)(N)C(=O)O
metric: cAMP release, % activity with respect to control, at 10 nM

The examples below pair each entry with its known result.
binder	reading
VH[αMeP]QGT[αMePhe(2-F)]TS[αMeD][αMeBip(OMe)][hhPhe]-NH2 [Seq. ID. No. 68]	81 % of control
VH[αMeP]EGTFTS[αMeD][αMeBip(OMe)][hhPhe]-NH2 [Seq. ID. No. 64]	84 % of control
VHAQGT[αMePhe(2-F)]TSD[αMeBip(OMe)][hhPhe] (not fully specified (C-terminus); printed as VHAQGT-(αMe-2FPhe)-TSD-(αMe-Bip(OMe))-(APPA)) [Seq. ID. No. 18]	99 % of control
VHSQGT[αMePhe(2,6-F2)]T[αMeS]D[αMeBip(OMe)][hhPhe]-NH2 [Seq. ID. No. 49]	78 % of control

Go through the items and report each one's cAMP release, % activity with respect to control, at 10 nM.
1. VHSEGT[αMePhe(2,6-F2)]T[αMeS]D[αMeBip(OMe)][αMeAPPA] (not fully specified (C-terminus); reading uncertain) [Seq. ID. No. 177]
2. VH[αMeP]EGT[αMePhe(2-F)]T[αMeS][αMeD][Bip(2'-Et-4'-OMe)][αMeAPPA] (not fully specified (C-terminus); reading uncertain) [Seq. ID. No. 122]
3. VH[Aib]EGTFTSD[Bip(2'-Et-4'-OMe)][αMeAPPA] (not fully specified (C-terminus); printed as VH-Aib-EGTFTSD-Bip(OMe)-(αMe-APPA); reading uncertain) [Seq. ID. No. 89]

["99 % of control", "99 % of control", "99 % of control"]
